Exercise: state measured kinetic units (KU) of apoptosis for each of the molecules provided.
# Test system: NSCLC, multi-focal, recurrent adenocarcinoma (site A)
# EXPERIMENTAL_PROTOCOL: MiCK assay, drug-induced apoptosis, Table 3 tumor C1
# Format: cell-based, human
# EXPERIMENTAL_CONTEXT: Table 3 tumor C1: NSCLC, multi-focal, recurrent adenocarcinoma (site A); 48 hours with drug
Give bare numbers, in KU.

| MOLECULE | kinetic units (KU) of apoptosis |
| --- | --- |
| CC(=O)O[C@@]12CO[C@@H]1C[C@H](O)[C@@]1(C)C(=O)[C@H](O)C3=C(C)[C@@H](OC(=O)[C@H](O)[C@@H](NC(=O)OC(C)(C)C)c4ccccc4)C[C@@](O)([C@@H](OC(=O)c4ccccc4)[C@H]21)C3(C)C [Docetaxel] | 0.90 |

Then this molecule:
// lookup kinetic units (KU) of apoptosis for CCC1=C[C@@H]2CN(C1)Cc1c([nH]c3ccccc13)[C@@](C(=O)OC)(c1cc3c(cc1OC)N(C)[C@H]1[C@@](O)(C(=O)OC)[C@H](OC(C)=O)[C@]4(CC)C=CCN5CC[C@]31[C@@H]54)C2 [Vinorelbine]
0.20

====

# Tested on: Lung adenocarcinoma (site B)
# EXPERIMENTAL_PROTOCOL: MiCK assay, drug-induced apoptosis, Table 4 tumor C2
# EXPERIMENTAL_CONTEXT: Table 4 tumor C2: Lung adenocarcinoma (site B); 48 hours with drug
EXPERIMENTAL_READOUT: kinetic units (KU) of apoptosis
Answers are plain numbers, in KU.

Record excerpt, results attached:
| COMPOUND | EXPERIMENTAL_READOUT | UNIT_OF_MEASUREMENT | REPORTED_RESULT |
| --- | --- | --- | --- |
| CC(=O)O[C@@]12CO[C@@H]1C[C@H](O)[C@@]1(C)C(=O)[C@H](O)C3=C(C)[C@@H](OC(=O)[C@H](O)[C@@H](NC(=O)OC(C)(C)C)c4ccccc4)C[C@@](O)([C@@H](OC(=O)c4ccccc4)[C@H]21)C3(C)C | kinetic units (KU) of apoptosis | KU | 2.10 |
| CC(=O)O[C@H]1C(=O)[C@@]2(C)[C@H]([C@H](OC(=O)c3ccccc3)[C@]3(O)C[C@H](OC(=O)[C@H](O)[C@@H](NC(=O)c4ccccc4)c4ccccc4)C(C)=C1C3(C)C)[C@]1(OC(C)=O)CO[C@@H]1C[C@@H]2O | kinetic units (KU) of apoptosis | KU | 3.60 |
| C#Cc1cccc(Nc2ncnc3cc(OCCOC)c(OCCOC)cc23)c1 | kinetic units (KU) of apoptosis | KU | 0.70 |
| CC[C@@]1(O)C(=O)OCc2c1cc1n(c2=O)Cc2cc3c(CN(C)C)c(O)ccc3nc2-1 | kinetic units (KU) of apoptosis | KU | 4.10 |
| O=NN(CCCl)C(=O)NCCCl | kinetic units (KU) of apoptosis | KU | 0.50 |

For every item in the list below, what is its measured kinetic units (KU) of apoptosis?
1. CN(Cc1cnc2nc(N)nc(N)c2n1)c1ccc(C(=O)N[C@@H](CCC(=O)O)C(=O)O)cc1 [Methotrexate]
2. O=C1[O][Pt]2([NH][C@@H]3CCCC[C@H]3[NH]2)[O]C1=O

0.60
2.50
